- Tested on: KM-20L2
- Assay Overview: NCI tumour cell line growth inhibition, 48 h
Activity calls are given as the source filed them. Cut-off read from the data, not from the text of the source: active = GI50 up to about 1.1 µM and inactive = higher.
Endpoint Name: GI50

Sample answers from the record:
- CCOCCOc1ccc(OCCOCC)cc1: 26.2 µM (inactive)
- O=C1C=Cc2ncccc2C1=O: > 45.9 µM (inactive)
- CC(=O)OC1=C2CC3(C)OC(=O)CC(C)(C)C3=CC=C2C=C(C(C)C)C1=O (configuration not stated): 1.62 µM (inactive)
- COc1ccc(/C=C2/C[N+](C)(C)C/C(=C/c3ccc(OC)cc3)C2=O)cc1: 50 µM (inactive)
- CCCO/S(=N\S(=O)(=O)c1ccccc1)c1ccccc1[N+](=O)[O-] (configuration not stated): > 100 µM (inactive)
- Cc1nc(Nc2ccc([N+](=O)[O-])cc2)sc1C(=O)/C=C/c1ccc(N(C)C)cc1: 73.1 µM (inactive)

Given the compound `CC(C)=CCC/C(=C/CC/C(C)=C/CCc1ccoc1)C(=O)O` , what is its reported GI50?
> 100 µM (inactive)

Given the compound COc1ccc(/C=C2\CCC(C)(CN(C)C)C2=O)cc1Br (configuration not stated) , what is its reported GI50?
1.26 µM (inactive)
